- system-tested: human CEA (hu N(A2-B2)A-avi-His B) (human)
- Sequence (P06731 whole entry): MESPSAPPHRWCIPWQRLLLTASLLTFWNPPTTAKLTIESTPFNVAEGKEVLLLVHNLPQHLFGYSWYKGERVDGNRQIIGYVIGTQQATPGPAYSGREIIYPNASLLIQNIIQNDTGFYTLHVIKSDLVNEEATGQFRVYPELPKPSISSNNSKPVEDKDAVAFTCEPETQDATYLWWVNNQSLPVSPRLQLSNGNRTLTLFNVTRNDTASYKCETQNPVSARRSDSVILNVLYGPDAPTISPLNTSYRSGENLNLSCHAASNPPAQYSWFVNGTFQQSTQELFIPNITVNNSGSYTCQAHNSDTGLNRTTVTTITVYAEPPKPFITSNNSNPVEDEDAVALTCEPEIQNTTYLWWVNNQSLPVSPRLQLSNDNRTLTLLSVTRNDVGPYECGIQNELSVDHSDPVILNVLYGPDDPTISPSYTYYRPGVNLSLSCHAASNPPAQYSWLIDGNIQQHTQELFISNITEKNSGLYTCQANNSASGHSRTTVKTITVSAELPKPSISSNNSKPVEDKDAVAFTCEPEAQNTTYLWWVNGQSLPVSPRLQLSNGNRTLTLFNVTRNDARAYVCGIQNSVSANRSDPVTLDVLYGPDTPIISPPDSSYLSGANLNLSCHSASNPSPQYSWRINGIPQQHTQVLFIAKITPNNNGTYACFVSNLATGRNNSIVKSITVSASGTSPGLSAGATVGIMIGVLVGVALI
- assay-remarks: SPR (Biacore T200), hu N(A2-B2)A-avi-His B immobilised, Fab as analyte, 1:1 Langmuir fit
Please respond with reported pKd for every item in the list.
Hey, just a heads up that pKd is the negative log base 10 of the concentration in molar.

Item P1AE4138, Fab derived from P1AE2167 (Fab, V domains shown) VH: EVQLLESGGGLVQPGGSLRLSCAASGFTFTDYYMNWVRQAPGKGLEWLGFIGNKANGYTTEYSASVKGRFTISRDKSKNTLYLQMNSLRAEDTATYYCTRDRGLRFYFDYWGQGTTVTVSS VL: EIVLTQSPATLSLSPGERATLSCRASSSVTYIHWYQQKPGQAPRSWIYATSNLASGIPARFSGSGSGTDFTLTISSLEPEDFAVYYCQHWSSKPPTFGQGTKLEIK : provide pKd
8.83

Item P1AE4137, Fab derived from P1AE2166 (Fab, V domains shown) VH: EVQLLESGGGLVQPGGSLRLSCAASGFTFTDYYMNWVRQAPGKGLEWLGFIGNKANGYTTEYSASVKGRFTISRDKSKNTLYLQMNSLRAEDTATYYCTRDRGLRFYFDYWGQGTTVTVSS VL: EIVLTQSPATLSLSPGERATLSCRASSSVTYIHWYQQKPGSSPKSWIYATSNLASGIPARFSGSGSGTDFTLTISSLEPEDFAVYYCQHWSSKPPTFGQGTKLEIK : provide pKd
7.95

Item P1AE4135, Fab derived from P1AE2164 (Fab, V domains shown) VH: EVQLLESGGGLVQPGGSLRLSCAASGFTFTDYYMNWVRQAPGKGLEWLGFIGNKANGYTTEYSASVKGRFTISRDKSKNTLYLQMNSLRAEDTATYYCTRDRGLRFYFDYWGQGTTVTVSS VL: QTVLTQSPATLSLSPGERATLSCRASSSVTYIHWYQQKPGSSPKSWIYATSNLASGIPARFSGSGSGTDYTLTISSLEPEDFAVYYCQHWSSKPPTFGQGTKLEIK : provide pKd
8.77

Item P1AE4136, Fab derived from P1AE2165 (Fab, V domains shown) VH: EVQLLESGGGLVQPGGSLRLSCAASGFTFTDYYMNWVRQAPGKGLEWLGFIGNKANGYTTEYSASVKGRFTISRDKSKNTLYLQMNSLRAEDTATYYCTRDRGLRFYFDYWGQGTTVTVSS VL: QTVLTQSPATLSLSPGERATLSCRASSSVTYIHWYQQKPGQAPRLLIYATSNLASGIPARFSGSGSGTDFTLTISSLEPEDFAVYYCQHWSSKPPTFGQGTKLEIK : provide pKd
8.90

Item P1AE4141, Fab derived from P1AE2179 (Fab, V domains shown) VH: EVQLLESGGGLVQPGGSLRLSCAASGFTFTDYYMNWVRQAPGKGLEWVGFIGNKANGYTTEYSASVKGRFTISRDKSKNTLYLQMNSLRAEDTAVYYCARDRGLRFYFDYWGQGTTVTVSS VL: QTVLTQSPATLSLSPGERATLSCRASSSVTYIHWYQQKPGSSPKSWIYATSNLASGIPARFSGSGSGTDYTLTISSLEPEDFAVYYCQHWSSKPPTFGQGTKLEIK : provide pKd
8.74
